# testName: in vitro
# testConditions: mouse, liver microsomes, pH 7.4
Non-standard residues stand in square brackets, D forms with d. Residues, ends and D or L forms follow the SMILES beside them. Dab(3S-OH) = NC[C@H](O)[C@H](N)C(=O)O; Phe(2-F) = N[C@@H](Cc1ccccc1F)C(=O)O; ΔZArg = N=C(N)NCC/C=C(\N)C(=O)O; dOrn = NCCC[C@@H](N)C(=O)O; Dab = NCC[C@H](N)C(=O)O

{"compound": "N=C(N)NCC/C=C(\\NC(=O)[C@H](CCCCN)NC(=O)[C@H](Cc1ccccc1F)NC(=O)[C@@H]1CCCN1C(=O)[C@@H](CCCN)NC(=O)CNC(=O)[C@H](CCN)NC(=O)[C@@H](NC(=O)[C@@H](N)CCCCN)[C@@H](O)CN)C(=O)O [NOSO-502] (H-K[Dab(3S-OH)][Dab]G[dOrn]P[Phe(2-F)]K[ΔZArg]-OH)", "half-life at 1 μM, h": 1.93}

----------
# testName: in vitro
# testConditions: mouse, plasma (EDTA anticoagulant), pH 7.4
Non-standard residues stand in square brackets, D forms with d. Residues, ends and D or L forms follow the SMILES beside them. Dab(3S-OH) = NC[C@H](O)[C@H](N)C(=O)O; Phe(2-F) = N[C@@H](Cc1ccccc1F)C(=O)O; ΔZArg = N=C(N)NCC/C=C(\N)C(=O)O; dOrn = NCCC[C@@H](N)C(=O)O; Dab = NCC[C@H](N)C(=O)O
parameterMeasured: fraction unbound at 4 h, 2 μM

{"molecule": "N=C(N)NCC/C=C(\\NC(=O)[C@H](CCCCN)NC(=O)[C@H](Cc1ccccc1F)NC(=O)[C@@H]1CCCN1C(=O)[C@@H](CCCN)NC(=O)CNC(=O)[C@H](CCN)NC(=O)[C@@H](NC(=O)[C@@H](N)CCCCN)[C@@H](O)CN)C(=O)O [NOSO-502] (H-K[Dab(3S-OH)][Dab]G[dOrn]P[Phe(2-F)]K[ΔZArg]-OH)", "dataValue": 0.198}

----------
# testName: in vivo
# testConditions: female, Sprague-Dawley, rat, plasma, iv, 15 mg/kg
Non-standard residues stand in square brackets, D forms with d. Residues, ends and D or L forms follow the SMILES beside them. Dab(3S-OH) = NC[C@H](O)[C@H](N)C(=O)O; Phe(2-F) = N[C@@H](Cc1ccccc1F)C(=O)O; ΔZArg = N=C(N)NCC/C=C(\N)C(=O)O; dOrn = NCCC[C@@H](N)C(=O)O; Dab = NCC[C@H](N)C(=O)O
parameterMeasured: Vd (L/kg)

{"compound": "N=C(N)NCC/C=C(\\NC(=O)[C@H](CCCCN)NC(=O)[C@H](Cc1ccccc1F)NC(=O)[C@@H]1CCCN1C(=O)[C@@H](CCCN)NC(=O)CNC(=O)[C@H](CCN)NC(=O)[C@@H](NC(=O)[C@@H](N)CCCCN)[C@@H](O)CN)C(=O)O [NOSO-502] (H-K[Dab(3S-OH)][Dab]G[dOrn]P[Phe(2-F)]K[ΔZArg]-OH)", "dataValue": 0.94}

----------
# testName: in vitro
# testConditions: dog, cryopreserved pooled hepatocytes
Non-standard residues stand in square brackets, D forms with d. Residues, ends and D or L forms follow the SMILES beside them. Dab(3S-OH) = NC[C@H](O)[C@H](N)C(=O)O; Phe(2-F) = N[C@@H](Cc1ccccc1F)C(=O)O; ΔZArg = N=C(N)NCC/C=C(\N)C(=O)O; dOrn = NCCC[C@@H](N)C(=O)O; Dab = NCC[C@H](N)C(=O)O

{"compound": "N=C(N)NCC/C=C(\\NC(=O)[C@H](CCCCN)NC(=O)[C@H](Cc1ccccc1F)NC(=O)[C@@H]1CCCN1C(=O)[C@@H](CCCN)NC(=O)CNC(=O)[C@H](CCN)NC(=O)[C@@H](NC(=O)[C@@H](N)CCCCN)[C@@H](O)CN)C(=O)O [NOSO-502] (H-K[Dab(3S-OH)][Dab]G[dOrn]P[Phe(2-F)]K[ΔZArg]-OH)", "unitsText": "min", "half-life at 1 μM": 483}

----------
# testName: in vivo
# testConditions: female, CD-1, mouse, plasma, iv, 30 mg/kg
Non-standard residues stand in square brackets, D forms with d. Residues, ends and D or L forms follow the SMILES beside them. Dab(3S-OH) = NC[C@H](O)[C@H](N)C(=O)O; Phe(2-F) = N[C@@H](Cc1ccccc1F)C(=O)O; ΔZArg = N=C(N)NCC/C=C(\N)C(=O)O; dOrn = NCCC[C@@H](N)C(=O)O; Dab = NCC[C@H](N)C(=O)O

{"molecule": "N=C(N)NCC/C=C(\\NC(=O)[C@H](CCCCN)NC(=O)[C@H](Cc1ccccc1F)NC(=O)[C@@H]1CCCN1C(=O)[C@@H](CCCN)NC(=O)CNC(=O)[C@H](CCN)NC(=O)[C@@H](NC(=O)[C@@H](N)CCCCN)[C@@H](O)CN)C(=O)O [NOSO-502] (H-K[Dab(3S-OH)][Dab]G[dOrn]P[Phe(2-F)]K[ΔZArg]-OH)", "unitsText": "L/kg", "Vd": 0.66}
